Test system: H2122
Assay: Cell viability dose-response, H2122
Type: cell-based, human
Settings: Homo sapiens, NCI-H2122, Table 8; 12-point dose-response starting at 50 micromolar
MEASURE NAME: log10 of AC50 (log10 of the value in nM)
Note the log scale: values are log10 of AC50 expressed in nM.

>  <MOLECULE>
O=c1c(-c2ccc(F)cc2F)coc2cc(OCc3cnn(-c4ccccc4)c3)ccc12

>  <log10 of AC50>
2.04

$$$$

I need log10 of AC50 for every entry listed below, if you could help.
1. O=C1c2ccc(OCc3cnn(-c4ccccc4)c3)cc2OCC1Cc1ccccc1 (stereo not drawn)
2. NCCCCCOc1cccc(CC2=CCc3cc(OCc4cnn(-c5ccccc5)c4)ccc3C2=O)c1
3. O=c1c(Oc2cccc(F)c2)coc2cc(OCc3cnn(-c4ccccc4)c3)ccc12
4. O=c1c(Cc2cccs2)coc2cc(OCc3cnn(-c4ccccc4)c3)ccc12
5. Cn1ccc(=O)c2ccc(OCc3cnn(-c4ccccc4)c3)cc21
6. C#CCOc1cccc(-c2coc3cc(OCc4cnn(-c5ccccc5)c4)ccc3c2=O)c1

Response line:
2.49
3.37
2.18
1.91
3.88
2.03

* * *

System: H2122
Experiment: Cell viability dose-response, H2122
Assay type: cell-based, human
Conditions: Homo sapiens, NCI-H2122, Table 8; 12-point dose-response starting at 50 micromolar
Experimental: FIG. 6A. […] Cell viability is plotted vs. compound concentration. Compound was added to cells plated at 15% confluence in 96-well plates in RPMI-1640 media supplemented with 5% Fetal Bovine Serum and 2 mM L-Glutamine. After 4 days of incubation, ATP levels were measured using Cell Titer Glo (Promega). […] Selectivity may be measured by the half maximal inhibitory concentration (IC50), which, as used herein, is a measure of the effectiveness of a compound in killing cells. […]
MEASURE NAME: log10 AC50 (log10 of the value in nM)
For clarity, the numbers are log10 values of AC50 expressed in nM.

Some entries whose results are on file:
>  <GIVEN SMILES>
Cc1cccc(Oc2coc3cc(OCc4cnn(-c5ccccc5)c4)ccc3c2=O)c1

>  <TARGET ENTITY>
H2122

>  <DATA VALUE>
2.30

$$$$
>  <GIVEN SMILES>
O=C1/C(=C/c2ccc(C(F)(F)F)cc2)COc2cc(OCc3cnn(-c4ccccc4)c3)ccc21

>  <TARGET ENTITY>
H2122

>  <DATA VALUE>
3.16

$$$$
>  <GIVEN SMILES>
O=C(c1ccccc1)c1coc2cc(OCc3cnn(-c4ccccc4)c3)ccc2c1=O

>  <TARGET ENTITY>
H2122

>  <DATA VALUE>
2.94

$$$$
>  <GIVEN SMILES>
O=C1/C(=C/c2cccc(C(F)(F)F)c2)COc2cc(OCc3cnn(-c4ccccc4)c3)ccc21

>  <TARGET ENTITY>
H2122

>  <DATA VALUE>
1.62

$$$$
>  <GIVEN SMILES>
O=C1/C(=C/c2ccccc2F)COc2cc(OCc3cnn(-c4ccccc4)c3)ccc21

>  <TARGET ENTITY>
H2122

>  <DATA VALUE>
2.92

$$$$

Consider the following items and state reported log10 AC50 for each.
1. O=c1c(Cc2cccc(C(F)(F)F)c2)coc2cc(OCc3cnn(-c4ccccc4)c3)ccc12
2. COc1ccc(-c2coc3cc(OCc4cnn(-c5ccccc5)c4)ccc3c2=O)c(C)c1
3. O=C1/C(=C/c2ncc[nH]2)COc2cc(OCc3cnn(-c4ccccc4)c3)ccc21
4. O=c1c(Oc2ccccc2Br)coc2cc(OCc3cnn(-c4ccccc4)c3)ccc12
5. O=c1c(Cc2ccc(C(F)(F)F)cc2)coc2cc(OCc3cnn(-c4ccccc4)c3)ccc12
6. O=c1c(Cc2cnccn2)coc2cc(OCc3cnn(-c4ccccc4)c3)ccc12

Response line:
1: 1.67; 2: 3.32; 3: 4.15; 4: 2.00; 5: 1.93; 6: 4.42

Please look at the items below and tell me log10 AC50 for each one, in order.
1. C#CCc1coc2cc(OCc3cnn(-c4ccccc4)c3)ccc2c1=O
2. O=C1/C(=C/c2ccc(F)cc2)COc2cc(OCc3cnn(-c4ccccc4)c3)ccc21
3. O=C1/C(=C/c2ccccc2C(F)(F)F)COc2cc(OCc3cnn(-c4ccccc4)c3)ccc21
4. O=c1c(Oc2ccc(F)cc2)coc2cc(OCc3cnn(-c4ccccc4)c3)ccc12
5. Cc1ccc(Cc2coc3cc(OCc4cnn(-c5ccccc5)c4)ccc3c2=O)cc1

Response line:
[2.93, 2.94, 1.93, 2.18, 1.96]

Give me log10 AC50 for each of these molecules, listed below.
1. O=c1c(C2CC2)coc2cc(OCc3cnn(-c4ccccc4)c3)ccc12
2. C=CCc1coc2cc(OCc3cnn(-c4ccccc4)c3)ccc2c1=O
3. O=c1c(Cc2ccccc2C(F)(F)F)coc2cc(OCc3cnn(-c4ccccc4)c3)ccc12

Response line:
4.22
2.51
1.45

# map each molecule to its log10 AC50
1. COc1ncccc1Cc1coc2cc(OCc3cnn(-c4ccccc4)c3)ccc2c1=O
2. O=c1c(Oc2cccc(Cl)c2)coc2cc(OCc3cnn(-c4ccccc4)c3)ccc12

Response line:
1: 2.37; 2: 2.34

* * *

Tested on: H2009
Assay: Cell viability dose-response, H2009
Type: cell-based, human
Conditions: Homo sapiens, NCI-H2009; 12-point dose-response starting at 50 micromolar, 3-fold increments, in duplicate; read-out: toxicity data, H2009
pIC50: −log10 of the molar value.
MEASURE NAME: pIC50

>  <COMPOUND>
COc1ccc(CNC(=O)c2ccc(Cl)cc2)cc1

>  <MEASURE NAME>
pIC50

>  <DATA VALUE>
≤ 4.31

$$$$
>  <COMPOUND>
COc1ccc(CCNC(=O)NC(=O)c2ccc(-c3ccncc3)cc2)cc1

>  <MEASURE NAME>
pIC50

>  <DATA VALUE>
≤ 4.31

$$$$
>  <COMPOUND>
COc1ccc(CCNC(=O)C(=O)Nc2ccc(Cl)cc2)cc1

>  <MEASURE NAME>
pIC50

>  <DATA VALUE>
≤ 4.30

$$$$

Prompt line: Please give the measured pIC50 for this compound: COc1ccc(CCNC(=O)NC(=O)c2ccc(C(O)c3ccccc3)cc2)cc1 (stereo not shown)
Response line: ≤ 4.31

* * *

System: H2009
Assay: Cell viability dose-response, H2009
Assay type: cell-based, human
Settings: Homo sapiens, NCI-H2009; 12-point dose-response starting at 50 micromolar, 3-fold increments, in duplicate; read-out: toxicity data, H2009
Please provide measured IC50 for the entries that follow.
Numbers only, in µM.

Examples from the recorded data:
>  <COMPOUND>
COc1ccc(CCNC(=O)NC(=O)c2cccc(-c3ccncc3)c2)cc1

>  <TARGET ENTITY>
H2009

>  <IC50, µM>
4.95

$$$$
>  <COMPOUND>
COc1ccc(CCNC(=O)N(C)C(=O)c2ccc(C(=O)c3ccccc3)cc2)cc1

>  <TARGET ENTITY>
H2009

>  <IC50, µM>
10.3

$$$$
>  <COMPOUND>
COc1ccc(CCNC(=O)NC(=O)c2ccc(C(Cl)c3ccccc3)cc2)cc1 (stereo not drawn)

>  <TARGET ENTITY>
H2009

>  <IC50, µM>
0.99

$$$$

Alright, here's another compound for you.
Prompt line: Quick check: IC50 of `CNC(=O)c1ccc(C(=O)NC(=O)NCCc2ccc(OC)cc2)cc1` ?
Response line: 16.3

* * *

Would you mind telling me the reported IC50 of each entry?
System: H2122
Assay: Cell viability dose-response, H2122
Assay type: cell-based, human
Settings: Homo sapiens, NCI-H2122, Tables 3 and 4; read-out: IC50 (uM) vs indicated non-small cell lung cancer cell line H2122

Please give IC50 for each item listed below.
1. O=C(Nc1nc2ccc(OCCCCBr)cc2s1)c1ccc(C(=O)c2ccccc2)cc1 [SW 208236]
2. O=C(Nc1nc2cnccc2s1)c1ccccc1 [SW209562-1]
3. O=C(Nc1nc2ccccc2[nH]1)c1ccc([N+](=O)[O-])cc1 [SW209206-1]

Response line:
1: ≥ 49.5 µM; 2: ≥ 49.5 µM; 3: ≥ 49.5 µM

* * *

Test system: HCC44
Assay: Cell viability dose-response, HCC44
Assay type: cell-based, human
Details: Homo sapiens, HCC44, 12-point dose-response starting at 50 micromolar, 3-fold increments, in duplicate; read-out: toxicity data, HCC44
Protocol: FIG. 6A. […] Cell viability is plotted vs. compound concentration. Compound was added to cells plated at 15% confluence in 96-well plates in RPMI-1640 media supplemented with 5% Fetal Bovine Serum and 2 mM L-Glutamine. After 4 days of incubation, ATP levels were measured using Cell Titer Glo (Promega). […] Selectivity may be measured by the half maximal inhibitory concentration (IC50), which, as used herein, is a measure of the effectiveness of a compound in killing cells. […]
MEASURE NAME: IC50

Answered examples (8):
>  <COMPOUND>
COc1ccc(CCNC(=O)NC(=O)c2ccc(C(=O)Nc3ccccc3)cc2)cc1

>  <TARGET ENTITY>
HCC44

>  <IC50>
≥ 49.5 µM

$$$$
>  <COMPOUND>
COc1ccc(CCNC(=O)NC(=O)c2ccc(C(=O)Nc3ccccc3OC)cc2)cc1

>  <TARGET ENTITY>
HCC44

>  <IC50>
≥ 49.5 µM

$$$$
>  <COMPOUND>
C#CCOc1ccc(C(=O)c2ccc(NC(=O)C(=O)NC(C)Cc3ccc(OC)cc3)cc2)cc1 (stereo not shown)

>  <TARGET ENTITY>
HCC44

>  <IC50>
≥ 49.5 µM

$$$$
>  <COMPOUND>
COc1ccc(CCNC(=O)NC(=O)c2ccc(C(=O)NCc3ccccc3)cc2)cc1

>  <TARGET ENTITY>
HCC44

>  <IC50>
≥ 49.5 µM

$$$$
>  <COMPOUND>
COc1ccc(CCNC(=O)NC(=O)c2cccc(Cl)c2)cc1

>  <TARGET ENTITY>
HCC44

>  <IC50>
≥ 49.5 µM

$$$$
>  <COMPOUND>
COc1ccc(CCNC(=O)NC(=O)c2ccc(C(=O)Nc3ccc(OC)cc3)cc2)cc1

>  <TARGET ENTITY>
HCC44

>  <IC50>
≥ 49.5 µM

$$$$
>  <COMPOUND>
COc1ccc(CCNC(=O)C(=O)Nc2cccc(Br)c2)cc1

>  <TARGET ENTITY>
HCC44

>  <IC50>
≥ 50 µM

$$$$
>  <COMPOUND>
COc1ccc(CCNC(=O)c2ccc(Cl)cc2)cc1

>  <TARGET ENTITY>
HCC44

>  <IC50>
≥ 49.5 µM

$$$$

Below is a list of compounds. For each, state its recorded IC50.
1. COc1ccc(CCNC(=O)NC(=O)c2ccc(C(=O)c3ccc(OC)cc3)cc2)cc1
2. COc1ccc(CCNC(=O)NC(=O)c2cccc(Br)c2)cc1

Response line:
1. ≥ 49.5 µM
2. ≥ 49.5 µM
